Entries annotated with measured antifungal MICc
- Tested on: Trichophyton interdigitale
- assay-info: checkerboard drug interaction (FICI, MICc);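 further: simplified diagonal checkerboard screen pairing antifungals with FPPS inhibitors, FICI values calculated under the Loewe additivity model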
- protocol-conditions: in combination with 10-ZOL
Lab note: jot down the number only; don't add units.

Answered cases to consult:
OC(Cn1cncn1)(Cn1cncn1)c1ccc(F)cc1F    32
C[C@@H](c1ncncc1F)[C@](O)(Cn1cncn1)c1ccc(F)cc1F    0.063
CCC(C)n1ncn(-c2ccc(N3CCN(c4ccc(OCC5COC(Cn6cncn6)(c6ccc(Cl)cc6Cl)O5)cc4)CC3)cc2)c1=O (stereo not shown)    0.5
CC[C@H](C)C[C@H](C)CCCCCCCCC(=O)N[C@H]1C[C@@H](O)[C@@H](NCCN)NC(=O)[C@@H]2[C@@H](O)CCN2C(=O)[C@H]([C@H](O)CCN)NC(=O)[C@H]([C@H](O)[C@@H](O)c2ccc(O)cc2)NC(=O)[C@@H]2C[C@@H](O)CN2C(=O)[C@H]([C@@H](C)O)NC1=O    0.5
CC(=O)N1CCN(c2ccc(OCC3COC(Cn4ccnc4)(c4ccc(Cl)cc4Cl)O3)cc2)CC1 (stereo not shown)    0.5

In: Tell me its antifungal MICc on Trichophyton interdigitale: Nc1nc(=O)[nH]cc1F
Out: 64

In: Tell me its antifungal MICc on Trichophyton interdigitale: C[C@@H]1[C@H](O)[C@@H](C)/C=C/C=C/C=C/C=C/C=C/C=C/C=C/[C@H](O[C@@H]2O[C@H](C)[C@@H](O)[C@H](N)[C@@H]2O)C[C@@H]2O[C@](O)(C[C@@H](O)C[C@@H](O)[C@H](O)CC[C@@H](O)C[C@@H](O)CC(=O)O[C@H]1C)C[C@H](O)[C@H]2C(=O)O
Out: 0.25

This collection of values is drawn from paper PMC12892976.
